These measurements were taken from patent US10544143B2.

TARGET_ENTITY: human TLR9 (Homo sapiens (Human))
Sequence (Q9NR96 26-1032): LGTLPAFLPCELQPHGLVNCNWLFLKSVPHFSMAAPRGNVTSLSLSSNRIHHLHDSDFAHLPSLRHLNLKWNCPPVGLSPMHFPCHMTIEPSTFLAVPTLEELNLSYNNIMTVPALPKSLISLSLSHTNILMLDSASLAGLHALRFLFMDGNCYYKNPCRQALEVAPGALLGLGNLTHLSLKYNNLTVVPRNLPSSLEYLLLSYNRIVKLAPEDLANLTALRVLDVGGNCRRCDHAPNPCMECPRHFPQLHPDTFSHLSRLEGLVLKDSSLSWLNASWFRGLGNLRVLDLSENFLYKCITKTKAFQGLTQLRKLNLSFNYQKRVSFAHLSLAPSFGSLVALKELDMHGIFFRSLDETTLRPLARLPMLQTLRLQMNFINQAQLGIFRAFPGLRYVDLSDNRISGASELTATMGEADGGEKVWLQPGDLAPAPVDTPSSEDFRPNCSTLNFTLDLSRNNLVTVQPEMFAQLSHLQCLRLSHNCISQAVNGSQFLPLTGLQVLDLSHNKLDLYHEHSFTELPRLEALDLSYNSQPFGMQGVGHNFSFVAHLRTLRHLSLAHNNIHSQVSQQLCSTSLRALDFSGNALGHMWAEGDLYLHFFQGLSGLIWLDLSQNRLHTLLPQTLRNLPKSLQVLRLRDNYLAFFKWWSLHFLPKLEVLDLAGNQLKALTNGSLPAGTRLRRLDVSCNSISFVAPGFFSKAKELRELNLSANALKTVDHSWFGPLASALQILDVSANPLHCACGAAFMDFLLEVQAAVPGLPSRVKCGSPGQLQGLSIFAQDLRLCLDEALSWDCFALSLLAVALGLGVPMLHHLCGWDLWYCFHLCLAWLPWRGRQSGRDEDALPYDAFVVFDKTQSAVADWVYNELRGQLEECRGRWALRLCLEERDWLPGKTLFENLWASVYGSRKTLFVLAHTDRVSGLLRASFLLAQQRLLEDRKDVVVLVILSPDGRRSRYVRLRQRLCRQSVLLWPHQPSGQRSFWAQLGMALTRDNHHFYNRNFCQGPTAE
PROTOCOL_NOTES: TLR9 inhibition reporter assay (HEK-Blue SEAP);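 note: SEAP driven by an IFN-β minimal promoter with NF-κB and AP-1 sites, read after 22 h, compounds dosed 0.05 nM–50 µM, inhibition scaled between agonist plus DMSO and reference-inhibitor wells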
STATED_CONDITIONS: read-out: TLR9 IC50; HEK-Blue cells overexpressing human TLR9, SEAP reporter, ODN2006 5 nM
pIC50: −log10 of the molar value.
READOUT_KIND: pIC50

a. COc1cc(-c2[nH]c3ccc(C4CC(N(C)C)C4)nc3c2C(C)C)cn2ncnc12 (stereo not shown) [Example 629]
b. Cc1c(-c2[nH]c3ccc(C4CCC(NCC5CCCCS5(=O)=O)CC4)nc3c2C(C)C)cn2ncnc2c1C (stereo not shown) [Example 471]
c. Cc1c(-c2[nH]c3ccc(C4CCC(N(CCO)CC(=O)N(C)C)CC4)nc3c2C(C)C)cn2ncnc2c1C (stereo not shown)
Ask | Hello, I need these entries ordered by pIC50, highest reading first. Thanks! Answer format: the labels, ordered as requested.
Reply | a, b, c

I. COc1cc(-c2[nH]c3ccc(C4CCN(C5COC5)CC4)nc3c2C(C)C)cn2ncnc12
II. Cc1c(-c2[nH]c3ccc(C4CCC(NCc5cnco5)CC4)nc3c2C(C)C)cn2ncnc2c1C (stereo not shown) [Example 416]
Ask | For this pair, I and II , which shows a numerically higher pIC50? Selection: enter the item's label.
Reply | II
(II: 5.79, I: 5.24)
